The measured values listed here are drawn from the RNAGym collection of RNA variant scans (doi:10.7554/elife.80360).

B1: Hairpin Ribozyme (parent)
chain: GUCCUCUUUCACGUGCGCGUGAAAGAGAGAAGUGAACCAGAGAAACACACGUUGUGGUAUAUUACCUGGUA

- Variants of: B1
- testProtocol: self-cleavage, relative activity (ratio to wild type); higher = more cleavage; co-transcriptional

[
  {
    "variantDescriptor": "U55C C65A",
    "self-cleavage": 0.142
  },
  {
    "variantDescriptor": "C16A G21C",
    "self-cleavage": 0.605
  },
  {
    "variantDescriptor": "G19C G29A",
    "self-cleavage": 0.112
  },
  {
    "variantDescriptor": "G1U G29A",
    "self-cleavage": 0.08
  },
  {
    "variantDescriptor": "C4G C10A",
    "self-cleavage": 0.12
  },
  {
    "variantDescriptor": "C3U A61C",
    "self-cleavage": 0.164
  },
  {
    "variantDescriptor": "C12A A39C",
    "self-cleavage": 0.397
  },
  {
    "variantDescriptor": "C18U A35G",
    "self-cleavage": 0.986
  },
  {
    "variantDescriptor": "G34C A64C",
    "self-cleavage": 0.578
  },
  {
    "variantDescriptor": "A36U A71C",
    "self-cleavage": 0.959
  },
  {
    "variantDescriptor": "A26G G29C",
    "self-cleavage": 0.139
  },
  {
    "variantDescriptor": "C16A A39U",
    "self-cleavage": 0.364
  },
  {
    "variantDescriptor": "A24C A44U",
    "self-cleavage": 0.17
  },
  {
    "variantDescriptor": "A35C C38U",
    "self-cleavage": 0.312
  },
  {
    "variantDescriptor": "C6A C66A",
    "self-cleavage": 0.198
  },
  {
    "variantDescriptor": "C4G U63G",
    "self-cleavage": 0.217
  },
  {
    "variantDescriptor": "C4G U7G",
    "self-cleavage": 0.144
  },
  {
    "variantDescriptor": "G40U A43U",
    "self-cleavage": 0.148
  },
  {
    "variantDescriptor": "A11U U55C",
    "self-cleavage": 0.118
  },
  {
    "variantDescriptor": "G25C A47G",
    "self-cleavage": 0.071
  },
  {
    "variantDescriptor": "C12A C38A",
    "self-cleavage": 0.18
  },
  {
    "variantDescriptor": "C3G A35C",
    "self-cleavage": 0.36
  },
  {
    "variantDescriptor": "C46U C48U",
    "self-cleavage": 0.139
  },
  {
    "variantDescriptor": "A22C A47G",
    "self-cleavage": 0.187
  },
  {
    "variantDescriptor": "A45U U55G",
    "self-cleavage": 0.0773
  },
  {
    "variantDescriptor": "U8A A30U",
    "self-cleavage": 0.0488
  },
  {
    "variantDescriptor": "A64G A71G",
    "self-cleavage": 0.554
  },
  {
    "variantDescriptor": "G17U U20G",
    "self-cleavage": 0.642
  },
  {
    "variantDescriptor": "G27A A61G",
    "self-cleavage": 0.114
  },
  {
    "variantDescriptor": "U33A U60A",
    "self-cleavage": 0.0246
  },
  {
    "variantDescriptor": "C12U U63A",
    "self-cleavage": 0.249
  },
  {
    "variantDescriptor": "G1A G40C",
    "self-cleavage": 0.167
  },
  {
    "variantDescriptor": "C4A U60G",
    "self-cleavage": 0.139
  },
  {
    "variantDescriptor": "A45C G54A",
    "self-cleavage": 0.132
  },
  {
    "variantDescriptor": "A44U A49G",
    "self-cleavage": 0.0827
  },
  {
    "variantDescriptor": "C16A A71G",
    "self-cleavage": 1.04
  },
  {
    "variantDescriptor": "A39U G51U",
    "self-cleavage": 0.632
  },
  {
    "variantDescriptor": "G13U A49C",
    "self-cleavage": 0.117
  },
  {
    "variantDescriptor": "A30C A39C",
    "self-cleavage": 0.12
  },
  {
    "variantDescriptor": "C12G G54U",
    "self-cleavage": 0.537
  },
  {
    "variantDescriptor": "U14G G57C",
    "self-cleavage": 0.0955
  },
  {
    "variantDescriptor": "U2G G15U",
    "self-cleavage": 0.395
  },
  {
    "variantDescriptor": "U62A G68C",
    "self-cleavage": 0.156
  },
  {
    "variantDescriptor": "C4A A59C",
    "self-cleavage": 0.191
  },
  {
    "variantDescriptor": "C4G U20G",
    "self-cleavage": 0.22
  },
  {
    "variantDescriptor": "C16A C46G",
    "self-cleavage": 0.143
  },
  {
    "variantDescriptor": "U60A G68U",
    "self-cleavage": 0.189
  },
  {
    "variantDescriptor": "A35U U52C",
    "self-cleavage": 0.811
  },
  {
    "variantDescriptor": "C18G G54C",
    "self-cleavage": 0.471
  },
  {
    "variantDescriptor": "G17A A31C",
    "self-cleavage": 0.144
  },
  {
    "variantDescriptor": "C38U G57A",
    "self-cleavage": 0.229
  },
  {
    "variantDescriptor": "C3U A26C",
    "self-cleavage": 0.314
  },
  {
    "variantDescriptor": "A28G A47G",
    "self-cleavage": 0.198
  },
  {
    "variantDescriptor": "A23C C65U",
    "self-cleavage": 0.282
  },
  {
    "variantDescriptor": "G17C G32C",
    "self-cleavage": 0.183
  },
  {
    "variantDescriptor": "C38G C50G",
    "self-cleavage": 0.0871
  },
  {
    "variantDescriptor": "C50U G56U",
    "self-cleavage": 0.121
  },
  {
    "variantDescriptor": "U5C C46A",
    "self-cleavage": 0.139
  },
  {
    "variantDescriptor": "U7C A61G",
    "self-cleavage": 0.164
  },
  {
    "variantDescriptor": "U52C U55C",
    "self-cleavage": 0.536
  },
  {
    "variantDescriptor": "A22C U58A",
    "self-cleavage": 0.68
  },
  {
    "variantDescriptor": "C3G G15U",
    "self-cleavage": 0.29
  },
  {
    "variantDescriptor": "G27A G32U",
    "self-cleavage": 0.0607
  },
  {
    "variantDescriptor": "A11G U70A",
    "self-cleavage": 0.627
  },
  {
    "variantDescriptor": "A28C U52C",
    "self-cleavage": 0.584
  },
  {
    "variantDescriptor": "G27A C38A",
    "self-cleavage": 0.127
  },
  {
    "variantDescriptor": "A45U U63A",
    "self-cleavage": 0.148
  },
  {
    "variantDescriptor": "U5C G13A",
    "self-cleavage": 0.591
  },
  {
    "variantDescriptor": "U20G C65A",
    "self-cleavage": 0.895
  },
  {
    "variantDescriptor": "U7A U53C",
    "self-cleavage": 1.07
  },
  {
    "variantDescriptor": "U20C G57C",
    "self-cleavage": 0.198
  },
  {
    "variantDescriptor": "G13U G15C",
    "self-cleavage": 0.608
  },
  {
    "variantDescriptor": "G17A C37A",
    "self-cleavage": 0.251
  },
  {
    "variantDescriptor": "A11C U62C",
    "self-cleavage": 0.278
  },
  {
    "variantDescriptor": "G13C C66G",
    "self-cleavage": 0.129
  },
  {
    "variantDescriptor": "A24G C48U",
    "self-cleavage": 0.179
  },
  {
    "variantDescriptor": "G1A C65G",
    "self-cleavage": 0.0867
  },
  {
    "variantDescriptor": "G57U C66A",
    "self-cleavage": 0.219
  },
  {
    "variantDescriptor": "U5A A41G",
    "self-cleavage": 0.162
  },
  {
    "variantDescriptor": "G1C G54A",
    "self-cleavage": 0.141
  },
  {
    "variantDescriptor": "A22C A41C",
    "self-cleavage": 1.22
  },
  {
    "variantDescriptor": "U5C C50G",
    "self-cleavage": 0.147
  },
  {
    "variantDescriptor": "A35G A43U",
    "self-cleavage": 0.223
  },
  {
    "variantDescriptor": "A26G U63C",
    "self-cleavage": 0.225
  },
  {
    "variantDescriptor": "C37G G69C",
    "self-cleavage": 0.984
  },
  {
    "variantDescriptor": "U9G A30C",
    "self-cleavage": 0.206
  },
  {
    "variantDescriptor": "A30U A44C",
    "self-cleavage": 0.0664
  },
  {
    "variantDescriptor": "C16G U70A",
    "self-cleavage": 0.728
  },
  {
    "variantDescriptor": "C46U A71G",
    "self-cleavage": 0.302
  },
  {
    "variantDescriptor": "A11G U33G",
    "self-cleavage": 0.131
  },
  {
    "variantDescriptor": "G17A G68C",
    "self-cleavage": 0.232
  }
]
